# Test system: CCRIS mutagenicity, Ames/micronucleus/aberration tests
# ASSAY NAME: CCRIS mutagenicity studies
# TEST SETTINGS: Test System: AMES SALMONELLA TYPHIMURIUM; Strain/Indicator: TA100; Metabolic Activation: NONE; Method: SPIRAL ASSAY
Activity calls are given as the source filed them. No rule for the calls is given here.
Respond using exactly one of the listed classes: true (active), false (inactive)

>>> class_label("O=[N+]([O-])c1ccc2c(c1)Cc1ccccc1-2")
"true"
>>> class_label("CC(=O)Nc1ccc2c(c1)Cc1ccccc1-2")
"false"
>>> class_label("Cc1c2ccccc2c(C)c2c1ccc1ccccc12")
"true"

**Q:** Which outcome was assigned to `CC1=CC(=O)c2ccccc2C1=O` in this test?
**A:** false
